Assay: Cmax in dog at 1 mg/kg, po and iv
Format: ADME, organism-based, Canis lupus familiaris
Set-up: dose 1 mg/kg, route oral
Details: in vivo
quantity: Cmax (µM)

Here are 3 compounds together with their reported answers.
> print(dat)
                         structure.notation  result.unit  measurement
1  Cc1ncc(C(=O)N[C@H]2C3CC4CC2C[C@](O)(C4)C3)c(C2CCCC2)n1           µM         0.17
2  O=C(N[C@H]1C2CC3CC1C[C@](O)(C3)C2)c1ccc(N2CCOCC2)nc1C1CC1           µM         0.04
3  O=C(N[C@H]1C2CC3CC1C[C@](O)(C3)C2)c1cnc(N2CCOCC2)nc1C1CC1           µM         0.36

I. CCCSc1nc(N2CCOCC2)ncc1C(=O)N[C@H]1C2CC3CC1C[C@](O)(C3)C2
II. Cc1ccc(C(=O)N[C@H]2C3CC4CC2C[C@](O)(C4)C3)c(C2CC2)n1
III. CCCSc1nc(C)ccc1C(=O)N[C@H]1C2CC3CC1C[C@](O)(C3)C2
IV. CCCSc1nc(C)ncc1C(=O)N[C@H]1C2CC3CC1C[C@](O)(C3)C2
Arrange the 4 compounds from largest to smallest Cmax. Would you mind listing the labels in the order requested? IV, II, III, I
